Procedure Details: in vitro metabolic stability in human liver microsomes
Assay type: in vitro ADME
Experimental Parameters: human, liver microsomes, compound 0.5 μM, human liver microsomes 0.5 mg/mL, NADPH, 40 min, 37° C.; read-out: Human liver microsome Clapp (apparent intrinsic clearance)
Please go through the items and note down their CLint scaled at 0.5 μM.
Numbers only, in mL/min/kg.

Name the recorded CLint scaled at 0.5 μM for CC12CN(c3ccc(C#N)cn3)C[C@@H]1CCN(c1ncnc3[nH]ccc13)C2 (stereo in doubt) .
136

Lookup `C[C@]12CN(C#N)CC[C@H]1CCN(c1ncnc3[nH]ccc13)C2`
54

Thanks! And Cc1cc(N2C[C@H]3CCN(c4ncnc5[nH]ccc45)C[C@@]3(C)C2)ncc1C#N (racemic) ?
200

API: the following record is the query input.
Sample CC[C@]12CN(C=O)CC[C@H]1CCN(c1ncnc3[nH]ccc13)C2 (relative stereo) — what was its CLint scaled at 0.5 μM?
116

* * *

Study Target: JAK3 (Homo sapiens (Human))
Sequence (P52333 822-1111): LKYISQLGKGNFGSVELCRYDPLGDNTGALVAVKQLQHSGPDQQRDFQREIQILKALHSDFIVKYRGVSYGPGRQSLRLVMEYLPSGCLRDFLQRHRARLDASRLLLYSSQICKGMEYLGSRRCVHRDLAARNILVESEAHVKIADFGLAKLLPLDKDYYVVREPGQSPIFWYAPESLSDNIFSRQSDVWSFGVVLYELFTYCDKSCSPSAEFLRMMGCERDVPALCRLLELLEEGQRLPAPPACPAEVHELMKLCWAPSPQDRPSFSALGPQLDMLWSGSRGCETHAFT
Procedure Details: JAK kinase assay (HTRF), JAK3
Experimental Parameters: catalytic domain, His-tag, ATP at Km (2 μM)
Property Name: pEC50
Answers are plain numbers, as −log10 of the molar value.

State its pEC50 on JAK3 (Homo sapiens (Human)): C[C@]12CN(c3ccc(S(C)(=O)=O)cc3)C[C@H]1CCN(c1ncnc3[nH]ccc13)C2 (racemic)
7.15

Next entry: C[C@]12CN(c3ccc(C#N)nn3)CC[C@H]1CCN(c1ncnc3[nH]ccc13)C2 (racemic)
8.05

Input C[C@]12CN(C#N)CC[C@H]1CCN(c1ncnc3[nH]ccc13)C2 [Example 1]
7.82

Next record, please: Cc1nc(N2CC[C@H]3CCN(c4ncnc5[nH]ccc45)C[C@@]3(C)C2)ccc1C#N (racemic)
6.69

In the following, a different compound is considered.
Report pEC50 for CC[C@]12CN(C(C)=O)CC[C@H]1CCN(c1ncnc3[nH]ccc13)C2 (relative stereo) tested on JAK3 (Homo sapiens (Human)).
7.16

* * *

Study Target: JAK3 (Homo sapiens (Human))
Procedure Details: JAK kinase assay (HTRF), JAK3
Experimental Parameters: catalytic domain, His-tag, ATP at Km (2 μM)
I'd appreciate it if you could supply EC50 values for the items below.
One number for each entry, in µM.

May I ask what EC50 has been recorded for `CC[C@]12CN(c3ncnc4[nH]ccc34)CC[C@H]1CCN(S(N)(=O)=O)C2` ?
0.151

What do you get for `C[C@@]12CN(C#N)CC[C@@H]1CCN(c1ncnc3[nH]ccc13)C2` ?
0.924

More entries:
Param item = C[C@@]12CN(c3ncnc4[nH]ccc34)CC[C@@H]1CN(S(C)(=O)=O)C2 (racemic) ; retrieve measured EC50.
0.243

* * *

Study Target: UniProt P52333
Procedure Details: JAK kinase assay (HTRF), JAK3
Experimental Parameters: catalytic domain, His-tag, ATP at Km (2 μM)
Property Name: EC50 (nM)
One number for each entry, in nM.

For every item in the list below, what is its measured EC50?
1. CC[C@]12CN(C#N)CC[C@H]1CCN(c1ncnc3[nH]ccc13)C2 [Example 22]
2. CC[C@@]12CN(c3ncnc4[nH]ccc34)CC[C@@H]1CCN(S(N)(=O)=O)C2 [Example 18]
3. CC12CN(c3ccc(C#N)cn3)C[C@H]1CCN(c1ncnc3[nH]ccc13)C2 (stereo in doubt)
4. CC[C@]12CN(c3nnc(Br)s3)CC[C@H]1CCN(c1ncnc3[nH]ccc13)C2 (relative stereo)

6
2
8
5

* * *

Study Target: JAK1 (Homo sapiens (Human), UniProt P23458)
Sequence (P23458 850-1154): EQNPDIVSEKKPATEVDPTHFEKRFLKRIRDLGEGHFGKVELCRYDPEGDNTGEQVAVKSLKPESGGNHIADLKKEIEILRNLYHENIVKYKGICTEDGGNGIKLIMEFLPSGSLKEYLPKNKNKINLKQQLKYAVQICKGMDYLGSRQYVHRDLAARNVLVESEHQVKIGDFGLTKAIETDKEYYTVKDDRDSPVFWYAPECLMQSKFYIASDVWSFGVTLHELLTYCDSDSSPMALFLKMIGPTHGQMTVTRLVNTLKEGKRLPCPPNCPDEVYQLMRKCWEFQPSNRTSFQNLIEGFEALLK
Procedure Details: JAK kinase assay (HTRF), JAK1
Experimental Parameters: catalytic domain (aa 850-1154), GST-tag, ATP at Km (7 μM)
Assignment: determine reported pEC50 for the given compounds.
Answers are plain numbers, as −log10 of the molar value.

Example entries begin here.
So what pEC50 did CC[C@]12CN(c3nc(C#N)cs3)CC[C@H]1CCN(c1ncnc3[nH]ccc13)C2 (relative stereo) [Example 25] get with JAK1 (Homo sapiens (Human), UniProt P23458)?
7.34

Please do the same for CC[C@]12CN(C#N)CC[C@H]1CCN(c1ncnc3[nH]ccc13)C2 [Example 22] as well.
9.00

Can you handle C[C@]12CN(C#N)C[C@H]1CCN(c1ncnc3[nH]ccc13)C2 [Example 29] next?
8.00

Now for a further compound.
JAK1 (Homo sapiens (Human), UniProt P23458) / pEC50 / CC[C@]12CN(C=O)CC[C@H]1CCN(c1ncnc3[nH]ccc13)C2 (relative stereo) [Example 16] : value?
7.89

All figures here come from patent US10851116B2.
